Below, pIC50 values reported for Cyclin-dependent kinase 1 (Homo sapiens, UniProt P06493) across several publications.
pIC50: −log10 of the molar value.
reported-endpoint: pIC50

1) CC(C)c1n[nH]c2c(Nc3ccc(Cl)c(N)c3)ncnc12 ... 5.54
2) COCc1cccc2[nH]c(-c3n[nH]c4ncc(-c5c[nH]c6ncccc56)cc34)nc12 ... 7.06
3) c1ccc2c(-c3cnc4[nH]nc(-c5nc6ccccc6[nH]5)c4c3)cncc2c1 ... 7.63
4) CC(C)c1c2c(nn1C)C(C)c1cnc(Nc3ccc(N4CCNCC4)cn3)nc1-2 (stereo not shown) ... 6.15

====

Below, IC50 values reported for Cyclin-dependent kinase 1 (Homo sapiens) across several publications.
reported-endpoint: IC50 (nM)

1) CCc1n[nH]c2c(Nc3cc(N)cc(Cl)c3)ncnc12 ... 20000
2) NS(=O)(=O)c1ccc(Nc2nc(NCc3ccccc3)c3cn[nH]c3n2)cc1 ... 7160
3) CN1CCN(c2ccc3nc(-c4n[nH]cc4C=Cc4cccnc4)[nH]c3c2)CC1 ... 29.1
4) CCNCc1cncc(-c2cnc3[nH]nc(-c4nc5cc(N6CCN(C)CC6)ccc5[nH]4)c3c2)c1 ... 3.05
5) CCNCc1cncc(-c2cnc3[nH]nc(-c4nc5ccc(F)cc5[nH]4)c3c2)c1 ... 0.7
6) c1ccc2c(-c3cnc4[nH]nc(-c5nc6c(CN7CCCC7)cccc6[nH]5)c4c3)cncc2c1 ... 4.92
7) CCN1CCN(Cc2ccc(Nc3ncc4c(n3)-c3c(nn(CC)c3C(C)C)CC4)nc2)CC1 ... 427
8) NS(=O)(=O)c1ccc(Nc2nc(Nc3ccc(S(N)(=O)=O)cc3)c3cnoc3n2)cc1 ... 2530
9) COCc1cccc2[nH]c(-c3n[nH]c4ncc(-c5cncc(C=O)c5)cc34)nc12 ... 231
10) O=S(=O)(NCCO)c1ccc(Nc2nc(Nc3ccc4[nH]ncc4c3)c3cnoc3n2)cc1 ... 1000
11) CC(C)c1n[nH]c2c(NCc3cccc(Cl)c3)ncnc12 ... 8800

====

Below, IC50 values reported for UniProtKB P06493 across several publications.
reported-endpoint: IC50

1) O=C(c1ccc(-c2c(F)cnc3[nH]c4cnc(-c5cccnc5)cc4c23)cc1)N1CCC(N2CCCC2)C1 (centres unmarked) ... 100 to 1000 nM
2) COc1ccc2nc(-c3n[nH]cc3C=Cc3cncc(C#N)c3)[nH]c2c1 ... > 1000 nM
3) CN1CCC(NC(=O)c2cccc3[nH]c(-c4n[nH]c5ncc(-c6cncc7ccccc67)cc45)nc23)CC1 ... 724 nM
4) c1cc(N2CCNCC2)ccc1Nc1nc(OCC2CCCCC2)c2cn[nH]c2n1 ... > 100000 nM
5) CN(C)CCCNC(=O)c1ccc(-c2c(F)cnc3[nH]c4cnc(-c5cnn(C)c5)cc4c23)cc1 ... 100 to 1000 nM
6) Cc1n[nH]c2c(Nc3ccc(Cl)c(C(=O)O)c3)ncnc12 ... 24000 nM
7) COCc1cccc2[nH]c(-c3n[nH]c4ncc(-c5cncnc5)cc34)nc12 ... 1280 nM
8) COCc1cccc2[nH]c(-c3n[nH]c4ncc(-c5cncc(OC)c5)cc34)nc12 ... 80.3 nM

====

Below, IC50 values reported for Cyclin-dependent kinase 1 (Homo sapiens) across several publications.
reported-endpoint: IC50 (µM)

1. COCc1cccc2[nH]c(-c3n[nH]c4ncc(-c5cncc(CO)c5)cc34)nc12 ... 0.0889
2. O=S(=O)(NCCO)c1ccc(Nc2nc(Nc3ccc(S(=O)(=O)NCCO)cc3)c3cn[nH]c3n2)cc1 ... 0.079
3. COc1ccc2nc(-c3n[nH]cc3C=Cc3ccc(N)nc3)[nH]c2c1 ... 0.023
4. CCc1n[nH]c2c(Nc3ccc(Cl)cc3)ncnc12 ... 14
5. CC(C)(C)n1ncc2c(Nc3ccc(S(=O)(=O)NCCO)cc3)nc(Nc3ccc(S(=O)(=O)NCCO)cc3)nc21 ... 2.79
6. CC(C)C(CO)Nc1nc(Nc2ccc(S(=O)(=O)NCCO)cc2)nc2[nH]ncc12 (centres unmarked) ... 12
7. O=C(NC1CCC(O)CC1)c1cccc2[nH]c(-c3n[nH]c4ncc(-c5cncc6ccccc56)cc34)nc12 (centres unmarked) ... 0.0116

====

Below, log10 IC50 values reported for Cyclin-dependent kinase 1 (Homo sapiens) across several publications.
reported-endpoint: log10 IC50 (log10 of the value in nM)

1) CC(C)c1n[nH]c2c(NCc3ccccc3Cl)ncnc12 ... 3.32
2) CCc1n[nH]c2c(NCc3ccccc3)ncnc12 ... 4.08
3) CCCNCc1cncc(-c2cnc3[nH]nc(-c4nc5c(COC)cccc5[nH]4)c3c2)c1 ... 0.87
4) O=C(c1cccc2[nH]c(-c3n[nH]c4ncc(-c5cncc6ccccc56)cc34)nc12)N1CCCCC1 ... 2.14
5) CC(C)c1n[nH]c2c(NC3CCCC3)ncnc12 ... 4.26
6) O=C(c1cccc2[nH]c(-c3n[nH]c4ncc(-c5cncc6ccccc56)cc34)nc12)N1CCOCC1 ... 1.62
7) c1ccc2c(-c3cnc4[nH]nc(-c5nc6c(COCCN7CCOCC7)cccc6[nH]5)c4c3)cncc2c1 ... 1.52
8) COCc1cccc2[nH]c(-c3n[nH]c4ncc(-c5cncc(CN(C)C)c5)cc34)nc12 ... 2.09
9) CC(C)N1CCOc2c(F)cc(-c3nc(Nc4cc(N5CCCNCC5)ccn4)ncc3F)cc21 ... 3.45
10) CNCc1cncc(-c2cnc3[nH]nc(-c4nc5cc6c(cc5[nH]4)OC(F)(F)O6)c3c2)c1 ... 0.20
11) CCc1nc2c(n1C1CCCC1)-c1nc(Nc3ccc(N4CCNCC4)cn3)ncc1C2 ... 2.81
12) CCn1nc2c(c1C(C)C)-c1nc(Nc3ccc(N4CCNCC4)cn3)ncc1CC2(C)C ... 2.91
13) CC(C)N1CCOc2c(F)cc(-c3nc(Nc4ccc(N5CCC(N(C)C)CC5)nc4)ncc3F)cc21 ... 0.48
14) CC(C)NCc1cncc(-c2cnc3[nH]nc(-c4nc5cc(N6CCN(C)CC6)ccc5[nH]4)c3c2)c1 ... 0.88
15) O=C(Nc1cccnc1)c1cccc2[nH]c(-c3n[nH]c4ncc(-c5cncc6ccccc56)cc34)nc12 ... 1.27
16) COCc1cccc2[nH]c(-c3n[nH]c4ncc(-c5ccc(F)nc5)cc34)nc12 ... 2.57
17) C=CCNc1ncnc2c(C)n[nH]c12 ... 4.62
18) O=C(O)c1cccc2[nH]c(-c3n[nH]c4ncc(-c5cncc6ccccc56)cc34)nc12 ... 2.73
19) COCc1cccc2[nH]c(-c3n[nH]c4ncc(-c5cncc(CNCCN(C)C)c5)cc34)nc12 ... 2.77
20) CCN1CCC(COc2ccc(Nc3ncc(F)c(-c4cc(F)c5c(c4)N(C(C)C)CCO5)n3)nc2)CC1 ... 3.17
21) COCc1cccc2[nH]c(-c3n[nH]c4ncc(-c5cncc(CN6CCOCC6)c5C)cc34)nc12 ... 2.67

====

Below, IC50 values reported for Cyclin-dependent kinase 1 (Homo sapiens, UniProt P06493) across several publications.
reported-endpoint: IC50 (nM)

1) CCc1n[nH]c2c(Nc3ccc(Cl)c(N)c3)ncnc12 ... 23000
2) COCc1cccc2[nH]c(-c3n[nH]c4ncc(-c5cncc(CNC(C)C)c5)cc34)nc12 ... 29.1
3) c1ccc2c(-c3cnc4[nH]nc(-c5nc6c(CN7CCCCC7)cccc6[nH]5)c4c3)cncc2c1 ... 8.11
4) Cc1cccc(CNc2ncnc3c(C(C)C)n[nH]c23)c1 ... 2200
5) COCc1cccc2[nH]c(-c3n[nH]c4ncc(-c5cnc6ccccc6c5)cc34)nc12 ... 1360
6) O=S(=O)(NCCO)c1ccc(Nc2nc(Nc3ccc(S(=O)(=O)NCCO)cc3)c3cnn(C4CCCCC4)c3n2)cc1 ... 12000
7) CN(C)C(=O)c1sc2cnc(Nc3ccc(N4CCNCC4)cn3)cc2c1C1CCCCC1 ... 39.5
8) COc1cncc(C=Cc2c[nH]nc2-c2nc3ccc(OC)cc3[nH]2)c1 ... 46.6
9) CCc1n[nH]c2c(NCC=C(C)C)ncnc12 ... 45000
10) COc1cc2[nH]c3ncnc(N4CCN(C(=S)Nc5ccc(S(=O)(=O)Nc6ncccn6)cc5)CC4)c3c2cc1OC ... 22300
11) NS(=O)(=O)c1ccc(Nc2nc(Nc3ccc4[nH]ncc4c3)nc3[nH]ncc23)cc1 ... 568
12) Cc1ccccc1NC(=O)c1cccc2[nH]c(-c3n[nH]c4ncc(-c5cncc6ccccc56)cc34)nc12 ... 80.6
13) CCc1n[nH]c2c(Nc3ccc(C(=O)O)c(Cl)c3)ncnc12 ... 36000
14) CCc1nc2c(n1C(C)C)-c1nc(Nc3ccc(CN4CCN(CC)CC4)cn3)ncc1C2 ... 5310
15) NS(=O)(=O)c1cccc(Nc2nc(Nc3cccc(S(N)(=O)=O)c3)c3cn[nH]c3n2)c1 ... 475
16) CCCCCNc1ncnc2c(C(C)C)n[nH]c12 ... 1700
17) Cc1cccc(CNc2ncnc3c(C)n[nH]c23)c1 ... 28000
18) c1ccc2c(-c3cnc4[nH]nc(-c5nc6c(Cn7ccnc7)cccc6[nH]5)c4c3)cncc2c1 ... 41.5
19) Cc1n[nH]c2c(NCc3cccc(Cl)c3)ncnc12 ... 8800
20) NS(=O)(=O)c1ccc(Nc2nc(Nc3ccccn3)c3cn[nH]c3n2)cc1 ... 24700
